- Measurement target: Cytochrome P450 2C9 (Homo sapiens)
- Sequence (P11712 whole entry): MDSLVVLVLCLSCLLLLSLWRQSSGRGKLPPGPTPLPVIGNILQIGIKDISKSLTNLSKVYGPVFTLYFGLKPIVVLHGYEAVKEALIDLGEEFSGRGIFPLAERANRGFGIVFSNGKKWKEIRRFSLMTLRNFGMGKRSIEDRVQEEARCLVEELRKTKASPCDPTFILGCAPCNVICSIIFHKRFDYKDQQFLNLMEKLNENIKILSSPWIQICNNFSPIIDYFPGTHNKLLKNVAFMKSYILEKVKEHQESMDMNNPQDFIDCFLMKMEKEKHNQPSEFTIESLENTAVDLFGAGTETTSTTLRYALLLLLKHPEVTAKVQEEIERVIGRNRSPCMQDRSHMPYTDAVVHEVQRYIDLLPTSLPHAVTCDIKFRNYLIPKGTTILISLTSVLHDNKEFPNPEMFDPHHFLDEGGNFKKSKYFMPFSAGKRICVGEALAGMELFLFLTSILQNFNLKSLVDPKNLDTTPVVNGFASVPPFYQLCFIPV
- Experiment: Inhibition of CYP2C9 (unknown origin) co-incubated with substrate and protein
- Format: ADME
pIC50: −log10 of the molar value.
# Lookup of reported pIC50 keyed by entry

1. O=S(=O)(c1ccc(Cl)cc1)[C@@]12CCCC(CO)(CO)[C@@H]1COc1c(F)ccc(F)c12 = 4.63
2. O=C1OCC[C@]12CCC[C@@]1(S(=O)(=O)c3ccc(Cl)cc3)c3c(F)ccc(F)c3OC[C@@H]21 = < 4.52
3. O=S(=O)(NC[C@@H]1OCC[C@@]2(S(=O)(=O)c3ccc(Cl)cc3)c3c(F)ccc(F)c3OC[C@@H]12)C(F)(F)F = 5.60
4. O=S(=O)(N[C@H]1CC[C@@](c2cc(F)ccc2F)(S(=O)(=O)c2ccc(Cl)cc2)CC1)C(F)(F)F = > 6.52

Sample O=S(=O)(N[C@@H]1CC[C@@]2(S(=O)(=O)c3ccc(Cl)cc3)c3c(F)ccc(F)c3OC[C@H]2C1)C(F)(F)F — what was its pIC50?
> 6.52

Find the recorded pIC50 belonging to O=S1(=O)CCC2(CCC[C@@]3(S(=O)(=O)c4ccc(Cl)cc4)c4c(F)ccc(F)c4OC[C@@H]23)CC1 and report it.
< 4.70

Suppose we examine the molecule O=S(=O)(c1ccc(Cl)cc1)[C@@]12CCC[C@]3(CCOC3)[C@@H]1COc1c(F)ccc(F)c12 (stereo in doubt; (-)-14b) ; what pIC50 value has been reported?
< 4.70

For O=S(=O)(N1CC[C@]2(CCC[C@@]3(S(=O)(=O)c4ccc(Cl)cc4)c4c(F)ccc(F)c4OC[C@@H]23)C1)C(F)(F)F , what is its reported pIC50?
< 4.52
